experimental target: Prostaglandin G/H synthase 1 (Ovis aries, UniProt P05979)
protocol summary: Inhibition of ovine COX1 assessed as inhibition of PGF2alpha production from PGH2 preincubated for 5 mins before arachidonic acid addition measured after 2 mins by enzyme immunoassay
reported metric: IC50

# batch: return IC50 for each of the 5 compounds below
1. COc1cc(CN2C(=O)C3CC=CCC3C2=O)cc(OC)c1OC (stereo unspecified)
2. COc1cc(CN2C(=O)c3nccnc3C2=O)cc(OC)c1OC
3. COc1cc(CN2C(=O)c3cc(Cl)c(Cl)cc3C2=O)cc(OC)c1OC
4. COc1ccc(CN2C(=O)CCC2=O)cc1
5. O=C1c2ccc([N+](=O)[O-])cc2C(=O)N1Cc1ccc(F)cc1

[reply]
> 100 µM
> 100 µM
120 µM
> 100 µM
> 100 µM

# batch: return IC50 for each of the 5 compounds below
1. COc1ccc(CN2C(=O)c3nccnc3C2=O)cc1
2. Cc1ccc2c(c1)C(=O)N(Cc1ccc(F)cc1)C2=O
3. O=C1c2c(Cl)c(Cl)c(Cl)c(Cl)c2C(=O)N1Cc1ccc(F)cc1
4. COc1cc(CN2C(=O)c3ccc(C(C)(C)C)cc3C2=O)cc(OC)c1OC
5. COc1cc(CN2C(=O)c3ccc([N+](=O)[O-])cc3C2=O)cc(OC)c1OC

[reply]
117 µM
> 100 µM
> 100 µM
> 100 µM
120 µM

[ask] Find the measured IC50: item "CC(C)(C)c1ccc2c(c1)C(=O)N(Cc1ccc(F)cc1)C2=O" , target or system Prostaglandin G/H synthase 1 (Ovis aries, UniProt P05979).
[reply] > 100 µM

###

experimental target: Prostaglandin G/H synthase 1 (Ovis aries, UniProt P05979)
Sequence (P05979 whole entry): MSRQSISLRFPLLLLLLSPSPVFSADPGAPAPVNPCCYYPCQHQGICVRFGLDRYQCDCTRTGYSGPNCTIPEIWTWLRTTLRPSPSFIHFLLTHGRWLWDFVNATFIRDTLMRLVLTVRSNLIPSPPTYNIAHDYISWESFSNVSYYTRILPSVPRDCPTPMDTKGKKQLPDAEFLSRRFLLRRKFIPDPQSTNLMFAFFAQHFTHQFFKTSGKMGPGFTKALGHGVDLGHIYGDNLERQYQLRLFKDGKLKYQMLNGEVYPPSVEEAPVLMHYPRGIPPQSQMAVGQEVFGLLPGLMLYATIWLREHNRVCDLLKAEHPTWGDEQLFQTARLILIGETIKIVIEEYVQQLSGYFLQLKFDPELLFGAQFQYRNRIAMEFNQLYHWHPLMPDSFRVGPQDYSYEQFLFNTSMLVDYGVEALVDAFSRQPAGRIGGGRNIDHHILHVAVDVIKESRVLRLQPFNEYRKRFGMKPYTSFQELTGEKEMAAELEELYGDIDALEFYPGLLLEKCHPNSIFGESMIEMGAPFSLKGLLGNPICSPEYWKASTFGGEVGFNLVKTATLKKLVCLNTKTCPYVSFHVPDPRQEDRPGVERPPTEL
protocol summary: Inhibition of ovine COX1 assessed as inhibition of PGF2alpha production from PGH2 preincubated for 5 mins before arachidonic acid addition measured after 2 mins by enzyme immunoassay
pIC50: −log10 of the molar value.
What pIC50 was measured for each of the following?

Solved entries:
COc1ccc(CN2C(=O)c3ccc([N+](=O)[O-])cc3C2=O)cc1 :: 3.93
COc1ccc(CN2C(=O)c3cc(Cl)c(Cl)cc3C2=O)cc1 :: 3.88
COc1ccc(CN2C(=O)c3c(Cl)c(Cl)c(Cl)c(Cl)c3C2=O)cc1 :: < 4.00
O=C1c2nccnc2C(=O)N1Cc1ccc(F)cc1 :: < 4.00
COc1ccc(CN2C(=O)C3CC=CCC3C2=O)cc1 (centres undefined) :: < 4.00

# batch: return pIC50 for each of the 2 compounds below
1. COc1cc(CN2C(=O)c3ccc(C)cc3C2=O)cc(OC)c1OC
2. COc1cc(CN2C(=O)c3c(Cl)c(Cl)c(Cl)c(Cl)c3C2=O)cc(OC)c1OC

[reply]
1. < 4.00
2. < 4.00
